System: saccharose synthase
PROCEDURE_SUMMARY: Dependence on divalent metal ions
Type: biochemical, rice
CONDITION_SUMMARY: 1 mM of metal ions
OBSERVABLE: influence of metal ions on the enzyme activity

{"COMPOUND": "[Mg+2] [Mg^2+]", "RECORDED_MEASUREMENT": "influenced only slightly"}
{"COMPOUND": "[Cu+2] [Cu^2+]", "RECORDED_MEASUREMENT": "completely inactivated"}
{"COMPOUND": "[Mn+2] [Mn^2+]", "RECORDED_MEASUREMENT": "influenced only slightly"}
{"COMPOUND": "[Fe+2] [Fe^2+]", "RECORDED_MEASUREMENT": "completely inactivated"}
